Numbers sourced from patent US5814628A.

Test system: human D2 receptor (short isoform) relative to human D4 receptor (D4.2 sub-type)
MEASUREMENT_DESCRIPTION: D4 selectivity: D2 versus D4 receptor binding (displacement of 3H-spiperone)
MEASUREMENT_CONTEXT: D2/D4 ratio, D2 in GH4 C1 cells, D4 in HEK 298 cells
REPORTED_METRIC: D2/D4

N#Cc1ccccc1CN1CCN(C2=Nc3ccccc3Oc3ccccc32)CC1
16.1

(a) N#Cc1ccc(CN2CCN(C3=Nc4ccccc4Oc4ccccc43)CC2)cc1
(b) Clc1ccc2c(c1)N=C(N1CCN(Cc3ccccc3)CC1)c1ccccc1O2
(c) N#Cc1cccc(CN2CCN(C3=Nc4ccccc4Oc4ccccc43)CC2)c1
List items by D2/D4 in falling order. Order the labels as requested and list them.
a, b, c
(a: 90.1, b: 31.7, c: 21.7)

----------
ASSAYED_SYSTEM: human D4 receptor (D4.2 sub-type) (Homo sapiens, UniProt P21917, DEL265-296)
Construct: homogenate used
Sequence (P21917 with tags, fused parts or gaps DEL265-296): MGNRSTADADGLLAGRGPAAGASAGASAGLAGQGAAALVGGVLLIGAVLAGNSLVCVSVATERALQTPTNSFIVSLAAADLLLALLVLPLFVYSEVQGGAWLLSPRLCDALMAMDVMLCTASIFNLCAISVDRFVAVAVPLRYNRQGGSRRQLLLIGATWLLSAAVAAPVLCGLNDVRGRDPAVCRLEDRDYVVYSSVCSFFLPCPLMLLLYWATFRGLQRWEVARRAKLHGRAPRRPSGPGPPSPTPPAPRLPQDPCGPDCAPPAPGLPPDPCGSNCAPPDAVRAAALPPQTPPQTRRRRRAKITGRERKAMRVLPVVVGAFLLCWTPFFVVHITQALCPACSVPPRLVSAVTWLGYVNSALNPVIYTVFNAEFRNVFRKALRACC
MEASUREMENT_DESCRIPTION: D4 receptor-binding affinity (displacement of 3H-spiperone)
MEASUREMENT_CONTEXT: 3H-spiperone 0.25 nM, HEK 298 cell membranes, Cheng and Prustoff transformation
pKi: −log10 of the molar value.
REPORTED_METRIC: pKi

N#Cc1ccc(CN2CCN(C3=Nc4ccccc4Oc4ccccc43)CC2)cc1
6.97

(1) N#Cc1cccc(CN2CCN(C3=Nc4ccccc4Oc4ccccc43)CC2)c1
(2) N#Cc1ccccc1CN1CCN(C2=Nc3ccccc3Oc3ccccc32)CC1
(3) Clc1ccc2c(c1)N=C(N1CCN(Cc3ccccc3)CC1)c1ccccc1O2
Rank order required: pKi, descending. Form field (ranking): labels in requested order.
3, 1, 2
